Tested on: 755483-174-R-J1-PDC complex spheroid growth, percent test/control
assayExplanation: Anticancer human tumor 755483-174-R-J1-PDC patient-derived rhabdomyosarcoma cell line growth inhibition [Asc]
assaySetup: second compound 0.3 µM; first compound 0.0316 µM; stronger effect = lower value
recordedMetric: viability, T/C (%)
Provide only the numeric value, understood in %.

* O=C(c1ccc(F)c(F)c1Nc1ccc(I)cc1F)N1CC(O)([C@@H]2CCCCN2)C1 + CCN1C(C(=O)NC23CCC(C(=O)O)(CC2)CC3)C(c2cccc(Cl)c2F)C2(C(=O)Nc3cc(Cl)ccc32)C12CCCCC2 | 102

// query viability, T/C value for entry C#Cc1c(F)ccc2cc(O)cc(-c3ncc4c(N5CC6CCC(C5)N6)nc(OCC56CCCN5CC(F)C6)nc4c3F)c12 (configuration not stated) + CCN1C(C(=O)NC23CCC(C(=O)O)(CC2)CC3)C(c2cccc(Cl)c2F)C2(C(=O)Nc3cc(Cl)ccc32)C12CCCCC2 79.4

---

# viability, T/C per record follows
Test system: 755483-174-R-J1-PDC complex spheroid growth, percent test/control
assayExplanation: Anticancer human tumor 755483-174-R-J1-PDC cell line growth inhibition [Asc];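 also: spheroids exposed to compounds for seven days before readout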
assaySetup: second compound 0.949 µM; first compound 0.00316 µM; stronger effect = lower value
Provide only the numeric value, understood in %.

Examples with their reported viability, T/C follow.
* O=C(c1ccc(F)c(F)c1Nc1ccc(I)cc1F)N1CC(O)([C@@H]2CCCCN2)C1 + CCN1C(C(=O)NC23CCC(C(=O)O)(CC2)CC3)C(c2cccc(Cl)c2F)C2(C(=O)Nc3cc(Cl)ccc32)C12CCCCC2 | 126
* CCN1CCN(Cc2ccc(Nc3ncc(F)c(-c4cc(F)c5nc(C)n(C(C)C)c5c4)n3)nc2)CC1 + CCN1C(C(=O)NC23CCC(C(=O)O)(CC2)CC3)C(c2cccc(Cl)c2F)C2(C(=O)Nc3cc(Cl)ccc32)C12CCCCC2 | 98.7
* Cn1ncnc1[C@H]1c2n[nH]c(=O)c3cc(F)cc(c23)N[C@@H]1c1ccc(F)cc1 + CCN1C(C(=O)NC23CCC(C(=O)O)(CC2)CC3)C(c2cccc(Cl)c2F)C2(C(=O)Nc3cc(Cl)ccc32)C12CCCCC2 | 74
* NC1CCC(NC2CC2c2ccccc2)CC1 (stereo unspecified) + CCN1C(C(=O)NC23CCC(C(=O)O)(CC2)CC3)C(c2cccc(Cl)c2F)C2(C(=O)Nc3cc(Cl)ccc32)C12CCCCC2 | 92
* CNC(C)C(=O)NC1CN(S(=O)(=O)c2cccc(S(=O)(=O)N3CCC4CCC(C(=O)NC(c5ccccc5)c5ccccc5)N4C(=O)C(NC(=O)C(C)NC)C3)c2)CCC2CCC(C(=O)NC(c3ccccc3)c3ccccc3)N2C1=O (stereo unspecified) + CCN1C(C(=O)NC23CCC(C(=O)O)(CC2)CC3)C(c2cccc(Cl)c2F)C2(C(=O)Nc3cc(Cl)ccc32)C12CCCCC2 | 92.7

Now turn to the next compound.
// query viability, T/C value for entry COc1c(OCCCN2CCOCC2)ccc2c3n(c(=NC(=O)c4cnc(N)nc4)nc12)CCN3 + CCN1C(C(=O)NC23CCC(C(=O)O)(CC2)CC3)C(c2cccc(Cl)c2F)C2(C(=O)Nc3cc(Cl)ccc32)C12CCCCC2 75.7

---

Tested on: 755483-174-R-J1-PDC complex spheroid growth, percent test/control
assayExplanation: Anticancer human tumor 755483-174-R-J1-PDC cell line growth inhibition [Asc];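 also: spheroids exposed to compounds for seven days before readout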
assaySetup: second compound 0.1 µM; first compound 0.949 µM; stronger effect = lower value
recordedMetric: viability, T/C (%)
Provide only the numeric value, understood in %.

Examples with their reported viability, T/C follow.
• CCN1C(C(=O)NC23CCC(C(=O)O)(CC2)CC3)C(c2cccc(Cl)c2F)C2(C(=O)Nc3cc(Cl)ccc32)C12CCCCC2 (centres undefined) + CNC(C)C(=O)NC1CN(S(=O)(=O)c2cccc(S(=O)(=O)N3CCC4CCC(C(=O)NC(c5ccccc5)c5ccccc5)N4C(=O)C(NC(=O)C(C)NC)C3)c2)CCC2CCC(C(=O)NC(c3ccccc3)c3ccccc3)N2C1=O = 32.6
• CCN1C(C(=O)NC23CCC(C(=O)O)(CC2)CC3)C(c2cccc(Cl)c2F)C2(C(=O)Nc3cc(Cl)ccc32)C12CCCCC2 (centres undefined) + Cc1c(S(C)(=O)=O)c(-c2cc(F)cc(N3CCN(c4ccc(NS(=O)(=O)c5ccc(NC(CCN6CCC(C(=O)OCCCP(=O)(O)O)CC6)CSc6ccccc6)c(S(=O)(=O)C(F)(F)F)c5)cc4)CC3)c2)c(-c2ccc(Cl)cc2)n1C(C)C = 65.5
• Cc1nc(N2CCC3(CC2)COC(C)C3N)c(CO)nc1Sc1ccnc(N)c1Cl (centres undefined) + Cc1c(S(C)(=O)=O)c(-c2cc(F)cc(N3CCN(c4ccc(NS(=O)(=O)c5ccc(NC(CCN6CCC(C(=O)OCCCP(=O)(O)O)CC6)CSc6ccccc6)c(S(=O)(=O)C(F)(F)F)c5)cc4)CC3)c2)c(-c2ccc(Cl)cc2)n1C(C)C = 14.2

// query viability, T/C value for entry Cc1nc(N2CCC3(CC2)COC(C)C3N)c(CO)nc1Sc1ccnc(N)c1Cl (centres undefined) + CNC(C)C(=O)NC1CN(S(=O)(=O)c2cccc(S(=O)(=O)N3CCC4CCC(C(=O)NC(c5ccccc5)c5ccccc5)N4C(=O)C(NC(=O)C(C)NC)C3)c2)CCC2CCC(C(=O)NC(c3ccccc3)c3ccccc3)N2C1=O 30.1
